All values here come from the supplement of paper PMC12667976.

Give measured AIRE transcriptional activation functional score for each item. Keep answers brief.
B1: library; numbered along this chain (parent)
chain: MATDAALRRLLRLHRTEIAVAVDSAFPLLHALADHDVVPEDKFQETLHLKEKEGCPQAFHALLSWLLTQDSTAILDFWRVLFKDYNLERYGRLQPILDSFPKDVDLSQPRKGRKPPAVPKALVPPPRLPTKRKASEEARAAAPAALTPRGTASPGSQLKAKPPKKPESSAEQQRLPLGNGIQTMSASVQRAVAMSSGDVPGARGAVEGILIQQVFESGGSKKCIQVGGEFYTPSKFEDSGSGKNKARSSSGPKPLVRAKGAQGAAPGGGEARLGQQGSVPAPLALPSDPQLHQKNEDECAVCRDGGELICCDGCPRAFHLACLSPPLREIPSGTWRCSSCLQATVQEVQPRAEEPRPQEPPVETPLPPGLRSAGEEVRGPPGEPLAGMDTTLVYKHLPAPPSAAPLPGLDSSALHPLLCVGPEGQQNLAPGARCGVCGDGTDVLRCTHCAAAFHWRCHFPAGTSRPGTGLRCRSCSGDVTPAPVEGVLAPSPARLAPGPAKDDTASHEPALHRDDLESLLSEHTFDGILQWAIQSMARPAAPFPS

- Variants of: B1
- protocol_details: AIRE transcriptional activation functional score (insulin promoter-GFP; nonsense median 0, synonymous median 1) (normalised score); higher = higher AIRE activity (more reporter activation)
- run_conditions: with insulin promoter-GFP reporter in HEK293
Give bare numbers.

Please review the entries below; each comes with its answer.
>  <variant_key>
V420H

>  <reported>
0.593

$$$$
>  <variant_key>
G268V

>  <reported>
1.02

$$$$
>  <variant_key>
G260C

>  <reported>
1.01

$$$$

Looking for the measured AIRE transcriptional activation functional score of "E237D" , can you help?
0.996
